# assayed system: OCT1 (Homo sapiens)
# Sequence (O15245 whole entry): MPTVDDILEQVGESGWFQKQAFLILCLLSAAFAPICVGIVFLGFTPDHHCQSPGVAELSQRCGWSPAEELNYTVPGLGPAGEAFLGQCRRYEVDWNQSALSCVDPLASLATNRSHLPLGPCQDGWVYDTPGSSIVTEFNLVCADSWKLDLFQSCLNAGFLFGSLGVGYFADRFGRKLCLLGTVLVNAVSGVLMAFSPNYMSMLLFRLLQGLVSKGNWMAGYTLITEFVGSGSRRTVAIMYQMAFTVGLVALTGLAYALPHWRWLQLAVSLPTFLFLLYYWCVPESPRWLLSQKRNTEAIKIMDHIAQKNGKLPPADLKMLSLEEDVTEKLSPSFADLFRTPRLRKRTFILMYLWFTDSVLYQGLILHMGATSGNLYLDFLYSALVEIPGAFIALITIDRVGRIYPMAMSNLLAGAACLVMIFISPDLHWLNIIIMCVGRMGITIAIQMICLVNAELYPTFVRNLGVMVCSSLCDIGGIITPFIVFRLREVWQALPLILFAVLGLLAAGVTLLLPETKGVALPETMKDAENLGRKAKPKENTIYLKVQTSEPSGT
# method description: OCT1-mediated methyl-4-phenylpyridinium uptake in HEK293-OCT1 cells

| compound structure | IC50, µM |
| --- | --- |
| CCCCCn1nc(C(=O)N[C@H](C(N)=O)C(C)C)c2ccccc21 | 136 |

###

# assayed system: OAT1 (Homo sapiens, UniProt Q4U2R8)
# Sequence (Q4U2R8 whole entry): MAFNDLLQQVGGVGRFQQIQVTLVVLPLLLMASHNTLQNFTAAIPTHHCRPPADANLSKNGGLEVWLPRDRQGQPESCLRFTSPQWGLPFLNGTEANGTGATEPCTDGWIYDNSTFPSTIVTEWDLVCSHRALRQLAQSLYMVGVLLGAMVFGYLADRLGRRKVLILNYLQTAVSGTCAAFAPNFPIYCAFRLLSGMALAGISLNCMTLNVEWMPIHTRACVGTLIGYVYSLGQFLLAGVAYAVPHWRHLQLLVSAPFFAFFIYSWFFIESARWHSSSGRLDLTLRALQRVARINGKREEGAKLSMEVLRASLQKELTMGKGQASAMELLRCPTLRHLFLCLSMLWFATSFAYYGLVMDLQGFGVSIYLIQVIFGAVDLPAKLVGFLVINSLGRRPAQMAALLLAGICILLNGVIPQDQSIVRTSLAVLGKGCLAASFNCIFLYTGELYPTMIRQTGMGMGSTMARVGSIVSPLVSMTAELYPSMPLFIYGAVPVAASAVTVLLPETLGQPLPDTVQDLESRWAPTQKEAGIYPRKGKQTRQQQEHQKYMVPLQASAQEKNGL
# method description: OAT1-mediated para-aminohippuric acid uptake in HEK293-OAT1 cells
pIC50: −log10 of the molar value.

| compound structure | pIC50 |
| --- | --- |
| CCCCCn1nc(C(=O)N[C@H](C(N)=O)C(C)C)c2ccccc21 | < 3.60 |

The origin of these recorded values is paper PMC7692329.
